settings: buffer; pH 7.4; 200.0 µM
Reported solubility kinetic values follow for various compounds
testReadout: solubility kinetic

compound	testReadout	reading
COC(=O)CNC(=O)CSc1ccccn1	solubility kinetic	> 36 µg/mL
Cc1cc(/C=C\c2ccccc2)nc2ccccc12	solubility kinetic	< 0.5 µg/mL
COc1ccc(OC)c(/C=C/C(=O)OCC(=O)N2CCCCC2)c1	solubility kinetic	> 50 µg/mL
Cc1cc(C(=O)N2CCC(C)CC2)on1	solubility kinetic	> 31.2 µg/mL
CC(=O)N[C@H]1C(O)O[C@H](CO)[C@@H](O)[C@@H]1O (stereo not given in full)	solubility kinetic	> 33.2 µg/mL
COC(=O)c1ccc(NC(=S)NC2CC2)cc1	solubility kinetic	> 37.5 µg/mL
COc1cc(C(=O)OC2CCOC2=O)c([N+](=O)[O-])cc1OC (stereo not given)	solubility kinetic	> 46.7 µg/mL
O=C(O)c1c2c(nc3ccccc13)/C(=C/c1cccc([N+](=O)[O-])c1)CCC2	solubility kinetic	> 54.1 µg/mL
CC(C)c1ccccc1NC(=O)COC(=O)c1cccnc1	solubility kinetic	> 44.8 µg/mL
COc1ccc(Cl)cc1C(=O)Nc1cccnc1Cl	solubility kinetic	< 0.3 µg/mL
Cc1cc(C)cc(NS(=O)(=O)c2ccc(F)cc2)c1	solubility kinetic	> 41.9 µg/mL
CCC1CCCCN1CC(C)(C)NS(=O)(=O)c1ccccc1 (stereo not given)	solubility kinetic	39.2 µg/mL
COc1ccc(C2NC(=O)CCC2[N+](=O)[O-])cc1 (stereo not given)	solubility kinetic	> 37.5 µg/mL
Cl.O=C(OCC1CCNCC1)c1ccc2c(c1)OCO2	solubility kinetic	> 45 µg/mL
O=C(NCC1CCCO1)C1CC(=O)N(c2cccc(Cl)c2)C1 (stereo not given)	solubility kinetic	46.6 µg/mL
COc1cc(OC)cc(C(=O)NCCc2ccc(OC)c(OC)c2)c1	solubility kinetic	45.5 µg/mL
CCOc1cc(/C=C(\C#N)C(=O)Nc2ccccn2)ccc1O	solubility kinetic	> 46.4 µg/mL
CCOC(=O)C(=CNc1cscc1S(=O)(=O)C(C)C)C(=O)OCC	solubility kinetic	38.9 µg/mL
COc1cc2[nH]c(Cl)c([N+](=O)[O-])c2cc1OC	solubility kinetic	> 38.5 µg/mL
COc1cccc(C(=O)COc2cccc(NC(=O)c3ccco3)c2)c1	solubility kinetic	14 µg/mL
O=C(Nc1ccc(S(=O)(=O)NC2=NCCCCC2)cc1)c1cccs1	solubility kinetic	> 56.6 µg/mL
COC(=O)c1cc(S(=O)(=O)N2CCCC(C)C2)c[nH]1 (stereo not given)	solubility kinetic	> 43 µg/mL
Cn1ccc(C(=O)N/N=C/c2ccncc2)n1	solubility kinetic	> 34.4 µg/mL
CC1(C)CC(NC(=O)C2CCCCC2)CC(C)(C)N1	solubility kinetic	35.2 µg/mL
CN1CCN(c2ncnc3scc(-c4ccccc4Cl)c23)CC1	solubility kinetic	> 51.7 µg/mL
O=C(Nc1ccc(F)c(F)c1)c1ccco1	solubility kinetic	> 33.5 µg/mL
CCOC(=O)c1c(C)[nH]c(C)c1C(=O)COC(=O)c1ccc(Cl)nc1	solubility kinetic	> 54.7 µg/mL
OCC1(CO)COC(CCc2ccccc2)=N1	solubility kinetic	> 35.3 µg/mL
O=C(CCSCc1ccccc1F)NCCc1ccccc1	solubility kinetic	17.8 µg/mL
CC1CCCC(NC(=O)C2CC(=O)N(Cc3ccccc3)C2)C1C (stereo not given)	solubility kinetic	37.4 µg/mL
